- SYSTEM NAME: hERG channel (Homo sapiens)
- Sequence (Q12809 whole entry): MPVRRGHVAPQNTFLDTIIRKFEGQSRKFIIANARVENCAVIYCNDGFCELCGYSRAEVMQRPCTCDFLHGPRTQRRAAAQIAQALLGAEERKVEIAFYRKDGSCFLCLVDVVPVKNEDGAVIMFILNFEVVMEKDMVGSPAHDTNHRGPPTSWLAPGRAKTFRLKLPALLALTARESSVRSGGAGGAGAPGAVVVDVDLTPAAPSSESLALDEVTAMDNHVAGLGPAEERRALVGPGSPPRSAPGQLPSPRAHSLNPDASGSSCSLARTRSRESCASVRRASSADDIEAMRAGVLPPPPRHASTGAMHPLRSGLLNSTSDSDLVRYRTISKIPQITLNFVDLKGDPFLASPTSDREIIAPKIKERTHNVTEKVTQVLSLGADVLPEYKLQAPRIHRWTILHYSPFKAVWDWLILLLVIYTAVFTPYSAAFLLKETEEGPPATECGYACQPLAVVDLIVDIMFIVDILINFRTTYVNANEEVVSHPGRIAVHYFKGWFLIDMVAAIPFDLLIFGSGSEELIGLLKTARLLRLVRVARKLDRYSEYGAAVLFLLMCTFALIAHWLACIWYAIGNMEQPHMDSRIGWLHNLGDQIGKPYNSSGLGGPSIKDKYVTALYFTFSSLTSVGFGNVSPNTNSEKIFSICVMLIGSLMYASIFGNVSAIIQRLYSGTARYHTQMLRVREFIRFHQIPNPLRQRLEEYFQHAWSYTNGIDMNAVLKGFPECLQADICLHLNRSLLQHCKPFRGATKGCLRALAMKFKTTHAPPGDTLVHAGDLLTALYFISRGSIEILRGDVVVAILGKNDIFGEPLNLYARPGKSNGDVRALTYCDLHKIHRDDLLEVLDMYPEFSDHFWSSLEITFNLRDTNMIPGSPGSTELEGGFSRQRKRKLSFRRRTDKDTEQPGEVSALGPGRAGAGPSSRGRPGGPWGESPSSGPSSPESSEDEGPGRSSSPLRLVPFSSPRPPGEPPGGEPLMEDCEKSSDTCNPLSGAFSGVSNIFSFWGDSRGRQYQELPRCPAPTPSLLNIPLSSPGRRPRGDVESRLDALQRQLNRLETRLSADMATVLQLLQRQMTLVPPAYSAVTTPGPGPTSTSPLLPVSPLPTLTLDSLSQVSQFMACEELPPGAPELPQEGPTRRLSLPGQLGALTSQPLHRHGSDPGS
- TEST PROTOCOL: hERG manual patch clamp assay
- Type: cell-based
- EXPERIMENTAL PARAMETERS: HEK 293 cells stably expressing hERG channel, pH 7.35, 10 μM compound
Entry flag: Satisfied if inhibition at 10 µM reaches 30%; Not satisfied if it does not.

>  <COMPOUND>
CN(C)CCONC(=O)c1ccc2c(c1)nc(Nc1nc3ccccc3o1)n2C [Example 123]

>  <ANSWER LABEL>
Satisfied

$$$$
>  <COMPOUND>
CCn1c(Nc2nc3ccc(OC(F)(F)F)cc3o2)nc2cc(C(=O)NCCO)ccc21 [Example 86]

>  <ANSWER LABEL>
Satisfied

$$$$
>  <COMPOUND>
CC(O)CNC(=O)c1ccc2c(c1)nc(Nc1nc3ccccc3o1)n2C (centres unmarked) [Example 23]

>  <ANSWER LABEL>
Not satisfied

$$$$
>  <COMPOUND>
Cn1c(Nc2nc3ccc(OC(F)(F)F)cc3o2)nc2cc(C(=O)NCCO)ccc21 [Example 53]

>  <ANSWER LABEL>
Satisfied

$$$$
>  <COMPOUND>
Cn1c(Nc2nc3ccc(OC(F)(F)F)cc3o2)nc2cc(C(=O)O)ccc21 [Example 44]

>  <ANSWER LABEL>
Not satisfied

$$$$
>  <COMPOUND>
CC(O)COCCNC(=O)c1ccc2c(c1)nc(Nc1nc3ccccc3o1)n2C (centres unmarked) [Example 25]

>  <ANSWER LABEL>
Not satisfied

$$$$
>  <COMPOUND>
Cn1c(Nc2nc3cc(OC(F)(F)F)ccc3[nH]2)nc2cc(C(=O)O)ccc21 [Example 13]

>  <ANSWER LABEL>
Satisfied

$$$$
>  <COMPOUND>
CN(C)CC(=O)NCCNC(=O)c1ccc2c(c1)nc(Nc1nc3ccccc3o1)n2C [Example 19]

>  <ANSWER LABEL>
Not satisfied

$$$$

* * *

- TEST PROTOCOL: PD study: compound concentration in mouse liver
- Type: in vivo, C57BL/6 mice
- EXPERIMENTAL PARAMETERS: male, C57BL/6, mouse, 50 mg/kg, 50 mpk oral, 3 h, read-out: Liver Conc uM (3 h)

>  <COMPOUND>
Cn1c(Nc2nc3cc(OC(F)(F)F)ccc3[nH]2)nc2cc(C(=O)O)ccc21 [Example 13]

>  <UNIT NAME>
µM

>  <concentration at 3 h>
63

$$$$
>  <COMPOUND>
Cn1c(Nc2nc3ccc(OC(F)(F)F)cc3o2)nc2cc(C(=O)O)ccc21 [Example 44]

>  <UNIT NAME>
µM

>  <concentration at 3 h>
217

$$$$
>  <COMPOUND>
Cn1c(Nc2nc3ccc(OC(F)(F)F)cc3s2)nc2cc(C(=O)NCCOCCO)ccc21 [Comparator 1, reference compound]

>  <UNIT NAME>
µM

>  <concentration at 3 h>
12.2

$$$$

* * *

- TEST PROTOCOL: Kinetic solubility
- Format: physicochemical
- EXPERIMENTAL PARAMETERS: Dulbecco's phosphate buffer saline (DPBS), aqueous buffer, kinetic from dmso stock, DPBS pH 7.4, 25° C., 200 μM test compound

>  <MOLECULE>
COCCNC(=O)c1ccc2c(c1)nc(Nc1nc3ccc(F)cc3o1)n2C

>  <UNIT NAME>
µM

>  <CMP>
<

>  <solubility at 16 h>
5

$$$$
>  <MOLECULE>
CCn1c(Nc2nc3ccc(OC(F)(F)F)cc3o2)nc2cc(C(=O)NCCO)ccc21

>  <UNIT NAME>
µM

>  <CMP>
=

>  <solubility at 16 h>
7.1

$$$$
>  <MOLECULE>
COCCNC(=O)c1ccc2c(c1)nc(Nc1nc3cc(F)ccc3o1)n2C

>  <UNIT NAME>
µM

>  <CMP>
<

>  <solubility at 16 h>
5

$$$$
>  <MOLECULE>
Cn1c(Nc2nc3ccccc3o2)nc2cc(C(N)C(F)(F)F)ccc21 (stereo not shown)

>  <UNIT NAME>
µM

>  <CMP>
=

>  <solubility at 16 h>
9

$$$$
>  <MOLECULE>
CN(C)CCONC(=O)c1ccc2c(c1)nc(Nc1nc3ccccc3o1)n2C

>  <UNIT NAME>
µM

>  <CMP>
=

>  <solubility at 16 h>
10.5

$$$$
>  <MOLECULE>
Cn1c(Nc2nc3ccc(OC(F)(F)F)cc3o2)nc2cc(C(=O)NC3COC3)ccc21

>  <UNIT NAME>
µM

>  <CMP>
<

>  <solubility at 16 h>
2

$$$$
>  <MOLECULE>
COCCNC(=O)c1ccc2c(c1)nc(Nc1nc3ccc(OCC(F)(F)F)cc3o1)n2C

>  <UNIT NAME>
µM

>  <CMP>
=

>  <solubility at 16 h>
0.4

$$$$
>  <MOLECULE>
Cn1c(Nc2nc3ccc(OCCO)cc3o2)nc2cc(C(=O)NCCOCCO)ccc21

>  <UNIT NAME>
µM

>  <CMP>
=

>  <solubility at 16 h>
6.6

$$$$
>  <MOLECULE>
COCCONC(=O)c1ccc2c(c1)nc(Nc1nc3ccccc3o1)n2C

>  <UNIT NAME>
µM

>  <CMP>
=

>  <solubility at 16 h>
0.5

$$$$
>  <MOLECULE>
Cn1c(Nc2nc3ccc(C(F)(F)F)cc3o2)nc2cc(C(=O)NCCOCC(C)(C)O)ccc21

>  <UNIT NAME>
µM

>  <CMP>
=

>  <solubility at 16 h>
3.6

$$$$

The reported measurements were obtained from patent US10766888B1.
